B1: Membrane-associated guanylate kinase, WW and PDZ domain-containing protein 2, residues 601 to 682; numbered along this chain, Q86UL8 (parent)
chain: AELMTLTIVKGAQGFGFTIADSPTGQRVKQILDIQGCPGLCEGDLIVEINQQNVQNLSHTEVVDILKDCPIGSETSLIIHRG

variants of: B1; experiment: abundance fitness (aPCA) (normalised: wild type 0, dead -1); higher = more abundant; growth selection in yeast, the domain comes from the species named; conditions: Homo sapiens
I would appreciate it if you labelled entries class 1 when abundance fitness is -0.08 or higher, otherwise class 0.

# input Given `E42H` , state whether its abundance fitness is at least -0.08.
# output class 0

# input Given `I65R` , state whether its abundance fitness is at least -0.08.
# output class 1

# input Given `D64L` , state whether its abundance fitness is at least -0.08.
# output class 0

# input Given `E74C` , state whether its abundance fitness is at least -0.08.
# output class 0

# input Given `V54D` , state whether its abundance fitness is at least -0.08.
# output class 0

# input Given `T60M` , state whether its abundance fitness is at least -0.08.
# output class 1

# input Given `K67H` , state whether its abundance fitness is at least -0.08.
# output class 0

# input Given `I49R` , state whether its abundance fitness is at least -0.08.
# output class 0

# input Given `I49T` , state whether its abundance fitness is at least -0.08.
# output class 0

# input Given `N53D` , state whether its abundance fitness is at least -0.08.
# output class 1

# input Given `L66R` , state whether its abundance fitness is at least -0.08.
# output class 0

# input Given `R81K` , state whether its abundance fitness is at least -0.08.
# output class 0

# input Given `G36N` , state whether its abundance fitness is at least -0.08.
# output class 1

# input Given `P23Y` , state whether its abundance fitness is at least -0.08.
# output class 0

# input Given `S73A` , state whether its abundance fitness is at least -0.08.
# output class 1

# input Given `G25F` , state whether its abundance fitness is at least -0.08.
# output class 0

# input Given `I79W` , state whether its abundance fitness is at least -0.08.
# output class 0

# input Given `T75F` , state whether its abundance fitness is at least -0.08.
# output class 1

# input Given `V54Q` , state whether its abundance fitness is at least -0.08.
# output class 0

# input Given `Q52W` , state whether its abundance fitness is at least -0.08.
# output class 0

# input Given `K67V` , state whether its abundance fitness is at least -0.08.
# output class 0

# input Given `Q55D` , state whether its abundance fitness is at least -0.08.
# output class 0

# input Given `Q26G` , state whether its abundance fitness is at least -0.08.
# output class 1

# input Given `I46M` , state whether its abundance fitness is at least -0.08.
# output class 1

# input Given `R81N` , state whether its abundance fitness is at least -0.08.
# output class 0

# input Given `T18D` , state whether its abundance fitness is at least -0.08.
# output class 1

# input Given `S22D` , state whether its abundance fitness is at least -0.08.
# output class 1

# input Given `G25T` , state whether its abundance fitness is at least -0.08.
# output class 0

# input Given `S58Y` , state whether its abundance fitness is at least -0.08.
# output class 0

# input Given `D68C` , state whether its abundance fitness is at least -0.08.
# output class 0

# input Given `P70K` , state whether its abundance fitness is at least -0.08.
# output class 1

# input Given `V54E` , state whether its abundance fitness is at least -0.08.
# output class 0

# input Given `D21C` , state whether its abundance fitness is at least -0.08.
# output class 0

# input Given `D44Q` , state whether its abundance fitness is at least -0.08.
# output class 0

# input Given `I19S` , state whether its abundance fitness is at least -0.08.
# output class 0

# input Given `G43Q` , state whether its abundance fitness is at least -0.08.
# output class 1

# input Given `N56F` , state whether its abundance fitness is at least -0.08.
# output class 0

# input Given `V28C` , state whether its abundance fitness is at least -0.08.
# output class 1

# input Given `S22P` , state whether its abundance fitness is at least -0.08.
# output class 0

# input Given `L32K` , state whether its abundance fitness is at least -0.08.
# output class 0

# input Given `V47W` , state whether its abundance fitness is at least -0.08.
# output class 0

# input Given `N56S` , state whether its abundance fitness is at least -0.08.
# output class 1

# input Given `C41D` , state whether its abundance fitness is at least -0.08.
# output class 1
